# Lookup of reported First screening IR (inhibition rate) keyed by entry
Target: human recombinant Yes [a.a. 2–543 (end)] (Homo sapiens, UniProt P07947)
Construct: human recombinant Yes [a.a; 2–543 (end)]; purchased BPS Bioscience 40488
Sequence (P07947 2-543): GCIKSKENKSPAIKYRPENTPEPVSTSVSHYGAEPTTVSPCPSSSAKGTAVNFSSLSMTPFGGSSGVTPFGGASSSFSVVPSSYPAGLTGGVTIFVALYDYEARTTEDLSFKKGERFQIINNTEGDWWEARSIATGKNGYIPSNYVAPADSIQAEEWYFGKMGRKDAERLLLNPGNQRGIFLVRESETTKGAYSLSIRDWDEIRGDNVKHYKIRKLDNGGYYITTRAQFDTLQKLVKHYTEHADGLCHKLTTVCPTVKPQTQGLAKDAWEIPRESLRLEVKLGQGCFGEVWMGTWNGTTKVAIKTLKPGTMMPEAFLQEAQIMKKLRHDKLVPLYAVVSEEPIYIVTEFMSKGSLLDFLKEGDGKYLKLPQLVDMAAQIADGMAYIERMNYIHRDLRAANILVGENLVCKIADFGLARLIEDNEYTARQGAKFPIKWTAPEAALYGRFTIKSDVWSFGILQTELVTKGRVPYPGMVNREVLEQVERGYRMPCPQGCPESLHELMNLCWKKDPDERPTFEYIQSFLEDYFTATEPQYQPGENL
Experiment: ADP-Glo kinase assay, inhibition rates of Yes phosphorylation activity (first and second screening)
Assay type: biochemical
Conditions: first screening; mean of n = 4 wells; 10 μmol L−1 compound
Answer in %, number only, no unit symbol.

1. COc1ccccc1-c1cc(NC(=O)c2ccc(Cn3cncn3)cc2)n[nH]1 : 13
2. CCN(C1CCS(=O)(=O)C1)S(=O)(=O)c1ccc(Br)cc1Cl (centres unmarked) : 2
3. Cn1c(=O)n(CCN2CCOCC2)c(=O)c2c1nc1n2CCN1c1ccc(Oc2ccccc2)cc1 : 49

The value of First screening IR (inhibition rate) measured for the compound CC(NC(=O)c1ccc2nc[nH]c2c1)c1ccc(F)c(F)c1 (centres unmarked) turned out to be -1

Reference for the values: paper PMC5607274
